EXPERIMENTAL_PROTOCOL: yeast display, Sf9 membrane polyspecificity reagent, FACS + sequencing; frameworks hold sequencing errors

- SEQ_STRING: "QVQLVESGGGLVQAGGSLRLSCAASGSIFEQNVMGWYRQAPGKERELVAAITRGGSTNYADSVKGRFTISRDNAKNTVYLQMNSLKPEDTAVYYCAKRRWLGPSTLDYWGQGTQVTVSS"
  polyreactivity (PSR sort gate): "low polyreactivity"
- SEQ_STRING: "QVQLVESGGGLVQAGGSLRLSCAASGAIFFVNDMGWYRQAPGKERELVAAITYSSGGTYYADSVKGRFTISRDNAKNTVYLQMNSLKPEDTAVYYCAVDFFLSYYSDMDYWGQGTQVTVSS"
  polyreactivity (PSR sort gate): "low polyreactivity"

---

EXPERIMENTAL_PROTOCOL: yeast display, Sf9 membrane polyspecificity reagent, FACS + sequencing; frameworks hold sequencing errors
READOUT_NAME: polyreactivity (PSR sort gate)

- SEQ_STRING: "QVQLVESGGGLVQAGGSLRLSCAASGYTFTGYAMGWYRQAPGKERELVAAITSIGGSTYYADSVKGRFTISRDNAKNTVYLQMNSLKPEDTAVYYCAAEGDYVYDMDYWGQGTQVTVSS"
  READOUT_NAME: "polyreactivity (PSR sort gate)"
  VALUE_REPORTED: "low polyreactivity"
- SEQ_STRING: "QVQLVESGGGLVQAGGSLRLSCAASGRIFPFYDMGWYRQAPGKEREFVARITLSGGSTYYADSVMGRFTISRDNAKNTVNLQMNSLKPEDTSVYYCSADRTSWSVLDFDYWGQGTQVTVSS"
  READOUT_NAME: "polyreactivity (PSR sort gate)"
  VALUE_REPORTED: "low polyreactivity"

---

EXPERIMENTAL_PROTOCOL: yeast display, Sf9 membrane polyspecificity reagent, FACS + sequencing; frameworks hold sequencing errors
READOUT_NAME: polyreactivity (PSR sort gate)

- SEQ_STRING: "QVQLVESGGGLVQAGGSLRLTCAASGRTFRANAMGWYRQATGKERELVAAISQRGGNTYYADSVKGRFTSSRDNAKNTVYFQMNSLKPEDTAVYYCAADITTYRRGRYEYEYWGQGTQVTVSS"
  VALUE_REPORTED: "high polyreactivity"
- SEQ_STRING: "QVQLVESGGGLVQAGGSLRLSCAASGRIFRYNVMGWYRQAPGKERELVAAITSRGGSTYYADSVKGRFTISRDNAKNTVYLQMNSLKPEDTAVYYCAAYPWEFGTYNYWGQGTQVTVSS"
  VALUE_REPORTED: "high polyreactivity"

---

EXPERIMENTAL_PROTOCOL: yeast display, Sf9 membrane polyspecificity reagent, FACS + sequencing; frameworks hold sequencing errors

- SEQ_STRING: "QVQLVESRGGLVQAGGSLRLSCAASGITFRTYSMGWYRQAPGKERELVAGIRTRTGSTYYADSVKGRFTISRDNAKNTVYLQMNSLKPEDTAVYYCAAKGSGYYGRQRIYSYTYDYWGQGTQVTVSS"
  polyreactivity (PSR sort gate): "high polyreactivity"
- SEQ_STRING: "QVQLVESGGGLVQAGGSLRLSCAASGSTFRVYAMGWYRQAPGKERELVANISWGGGRTYYADSVKGRFTISRDNAKNTVYLQMNSLKPEDTAVYYCAADIAWYTHYHRIFDYWGQGTQVTVSS"
  polyreactivity (PSR sort gate): "low polyreactivity"
- SEQ_STRING: "QVQLVESGGGLVQAGGSLRLSCAASGIIFKYYAMGWYRQAPGKERELVAVISRSGGGTYYADSVKGRFTISRDNAKNTVYLQMNSLKPEDTAVYYCAAERSSGFDYWGQGTQVTVSS"
  polyreactivity (PSR sort gate): "high polyreactivity"
- SEQ_STRING: "QVQLVESGGGLVQAGGSLRLSCAASGSTFYRYAMGWYRQAPGKERELVAGISSSGGSTYYADSVKGRFTISRDNAKNTVYLQMNSLKPEDTAVYYCAAVGQWGYGYWGQGTQVTVSS"
  polyreactivity (PSR sort gate): "high polyreactivity"
- SEQ_STRING: "QVQLVESGGGLVQAGGSLRLSCAASGLTFRAYVMGWYRQAPWKERELVAAISVSGGSTYYADSVKGRFTISRDNAKNKVYLQLNSLKPEDTAVYYFAAAYSSSKSSGNYYYWGLGTQVTVSS"
  polyreactivity (PSR sort gate): "high polyreactivity"
- SEQ_STRING: "QVQLVESGGGLVQAGGSLRLSCAASGFIFGVNAMGWYRQARGKERELVAAISTSGGSTYYADSVKGRFTISRDNAKNTVYLQMNSLKPEDTAVYYCAALLHRWAYGTYGYVYWGQGSQVTVSS"
  polyreactivity (PSR sort gate): "high polyreactivity"
- SEQ_STRING: "QVQLVESGGGLDQAGGSLRLSCAASGFIFKYYVMGWYRQAPGKERELVAAISLSDARTNYADSVKGRFTISRDNAKNTVYLQMHSLKPVDTAFYYCAAKSHYYTSGHRHYDYWGQGTQVTVSS"
  polyreactivity (PSR sort gate): "high polyreactivity"
- SEQ_STRING: "QVQLVESGGGLVQAGGSLRLSCAASGRIFSPYAMGWYRQAPGKERELVAAITSSGGSSYYADSVKGRFTISRDYAKNTVYLQMNSLKPEDTAVYYCNARRGRYTPSVNYWGQGTQVTVSS"
  polyreactivity (PSR sort gate): "high polyreactivity"
- SEQ_STRING: "QVQLVESGGGLVQAGGSLRLSCAASGFTFYLYTMGWYRQAPGKERELVATITSDGGTNYADSVKGRFTISRDNAKNTVYLQMNSLTPEDTAVYYCARDYLSPYAVDYWGQGTQVTVSS"
  polyreactivity (PSR sort gate): "low polyreactivity"
- SEQ_STRING: "QVQLVESGGGLVQAGGSLRLSCAASGSIFLPYAMGWYRQAPGKERELVAAITWGGDSTYADSVKGRFTISRDNAKNTVYLQMNSLKPEDTAVYYCAAGAGFESDYWGQGTQVTVSS"
  polyreactivity (PSR sort gate): "low polyreactivity"
- SEQ_STRING: "QVQLVESGGGLVQAGGSLRLSCAASGRTFYYYAMGGYRQAPGKERELVAAISKSATRTYYADSVKGRFTISRDNAKNTVYLQMNSLKPEDTAVYYCATGQYLRTSRYYYWGQGTQVTVSS"
  polyreactivity (PSR sort gate): "high polyreactivity"
